Sourced from ChEMBL document CHEMBL3272096

Test system: Escherichia coli
Test: Antibacterial activity against Escherichia coli 12140 infected in sc dosed mouse assessed as host protection administered at 1 and 5 hrs post-infection
Assay type: functional
Conditions: Escherichia coli, 12140, sc; read-out: PD50
List of ED50 values.
State just the number; it will be interpreted in mg/kg.

| mol | target.entity | readout.number |
| --- | --- | --- |
| CCCS(=O)(=O)CC(=O)N[C@@H]1C(=O)N2C(C(=O)[O-])=C(CSc3nnnn3C)CS[C@H]12.[Na+] | Escherichia coli | 10 |
| CCCS(=O)(=O)CC(=O)N[C@@H]1C(=O)N2C(C(=O)O)=C(COC(C)=O)CS[C@H]12 | Escherichia coli | 56 |

# evaluate next
**Q:** Could you share which ED50 value was measured for Cn1nnnc1SCC1=C(C(=O)O)N2C(=O)[C@@H](NC(=O)CSC(F)(F)F)[C@H]2SC1 ?
**A:** 2

----------
List of MIC values.
Test system: Escherichia coli
Assay: Antibacterial activity against Escherichia coli 12140 by two-fold agar dilution method
Format: functional
State just the number; it will be interpreted in µg/mL.

Example cases with answers are listed next.
| compound | readout.number |
| --- | --- |
| CC(C(=O)N[C@@H]1C(=O)N2C(C(=O)[O-])=C(CSc3nnnn3C)CS[C@H]12)S(C)(=O)=O.[Na+] (stereo partly specified) | 6.2 |
| Cn1cnnc1SCC1=C(C(=O)[O-])N2C(=O)[C@@H](NC(=O)CS(C)(=O)=O)[C@H]2SC1.[Na+] | 6.2 |
| CC(=O)OCC1=C(C(=O)O)N2C(=O)[C@@H](NC(=O)CS(=O)(=O)C(F)(F)F)[C@H]2SC1 | 6.2 |
| CCCS(=O)(=O)CC(=O)N[C@@H]1C(=O)N2C(C(=O)O)=C(COC(C)=O)CS[C@H]12 | 13 |
| CC(=O)OCC1=C(C(=O)O)N2C(=O)[C@@H](NC(=O)Cc3cccs3)[C@H]2SC1 | 3.1 |
| CCCS(=O)(=O)CC(=O)N[C@@H]1C(=O)N2C(C(=O)[O-])=C(CSc3nnc(C)s3)CS[C@H]12.[Na+] | 6.2 |
| CC(=O)OCC1=C(C(=O)[O-])N2C(=O)[C@@H](NC(=O)C(C)S(C)(=O)=O)[C@H]2SC1.[Na+] (stereo partly specified) | 25 |
| Cn1nnnc1SCC1=C(C(=O)[O-])N2C(=O)[C@@H](NC(=O)CS(N)(=O)=O)[C@H]2SC1.[Na+] | 3.1 |

**Q:** Could you share which MIC value was measured for Cc1nnc(SCC2=C(C(=O)O)N3C(=O)[C@@H](NC(=O)Cn4cnnn4)[C@H]3SC2)s1 ?
**A:** 0.8

**Q:** Could you share which MIC value was measured for CS(=O)(=O)CC(=O)N[C@@H]1C(=O)N2C(C(=O)[O-])=C(CSc3nnn[nH]3)CS[C@H]12.[Na+] ?
**A:** 50

**Q:** Could you share which MIC value was measured for CC(=O)OCC1=C(C(=O)[O-])N2C(=O)[C@@H](NC(=O)CS(N)(=O)=O)[C@H]2SC1.[Na+] ?
**A:** 50

----------
Tested on: Escherichia coli
Test: Antibacterial activity against Escherichia coli 12140 infected in sc dosed mouse assessed as host protection administered at 1 and 5 hrs post-infection
Assay type: functional
Details: Escherichia coli, 12140, sc; read-out: PD50
List of ED50 values.
State just the number; it will be interpreted in mg/kg.

Example cases with answers are listed next.
| mol | recorded.endpoint | readout.number |
| --- | --- | --- |
| CC(=O)OCC1=C(C(=O)[O-])N2C(=O)[C@@H](NC(=O)CS(C)(=O)=O)[C@H]2SC1.[Na+] | ED50 | 62 |
| Cn1nnnc1SCC1=C(C(=O)[O-])N2C(=O)[C@@H](NC(=O)CS(C)(=O)=O)[C@H]2SC1.[Na+] | ED50 | 7 |
| Cn1nnnc1SCC1=C(C(=O)[O-])N2C(=O)[C@@H](NC(=O)CS(=O)(=O)C(F)(F)F)[C@H]2SC1.[Na+] | ED50 | 17 |
| CCS(=O)(=O)CC(=O)N[C@@H]1C(=O)N2C(C(=O)[O-])=C(COC(C)=O)CS[C@H]12.[Na+] | ED50 | 70 |
| Cc1nnc(SCC2=C(C(=O)[O-])N3C(=O)[C@@H](NC(=O)CS(C)(=O)=O)[C@H]3SC2)[nH]1.[Na+] | ED50 | 10 |
| CS(=O)(=O)CC(=O)N[C@@H]1C(=O)N2C(C(=O)[O-])=C(CSc3nnn[nH]3)CS[C@H]12.[Na+] | ED50 | 45 |
| CCCS(=O)(=O)CC(=O)N[C@@H]1C(=O)N2C(C(=O)[O-])=C(CSc3nnc(C)s3)CS[C@H]12.[Na+] | ED50 | 25 |

**Q:** Could you share which ED50 value was measured for CCS(=O)(=O)CC(=O)N[C@@H]1C(=O)N2C(C(=O)O)=C(CSc3nnc(C)s3)CS[C@H]12 ?
**A:** 8

----------
Test system: Escherichia coli
Assay: Antibacterial activity against Escherichia coli 12140 by two-fold agar dilution method
Assay type: functional
List of MIC values.
State just the number; it will be interpreted in µg/mL.

| mol | readout.number |
| --- | --- |
| CCCS(=O)(=O)CC(=O)N[C@@H]1C(=O)N2C(C(=O)[O-])=C(CSc3nnnn3C)CS[C@H]12.[Na+] | 1.6 |
| Cn1nnnc1SCC1=C(C(=O)[O-])N2C(=O)[C@@H](NC(=O)CS(=O)(=O)C(F)(F)F)[C@H]2SC1.[Na+] | 1.6 |
| Cc1nnc(SCC2=C(C(=O)[O-])N3C(=O)[C@@H](NC(=O)CS(C)(=O)=O)[C@H]3SC2)s1.[Na+] | 13 |
| CCS(=O)(=O)CC(=O)N[C@@H]1C(=O)N2C(C(=O)[O-])=C(CSc3nnnn3C)CS[C@H]12.[Na+] | 1.6 |

# evaluate next
**Q:** Could you share which MIC value was measured for CCS(=O)(=O)CC(=O)N[C@@H]1C(=O)N2C(C(=O)[O-])=C(COC(C)=O)CS[C@H]12.[Na+] ?
**A:** 25
